Data credit: patent US20140348834A1

Target: T1, rat IL-17A (rat, UniProt Q61453 18-150, limits assumed)
T1 sequence (looked up): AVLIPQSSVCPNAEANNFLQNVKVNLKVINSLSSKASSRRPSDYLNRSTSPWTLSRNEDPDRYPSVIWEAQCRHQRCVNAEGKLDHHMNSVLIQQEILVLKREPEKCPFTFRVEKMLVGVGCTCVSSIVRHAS
Test: cell-based or functional assay
metric: Potency (pM), IL-17 and TNF-alpha-driven IL-6 production in NIH3T3 cells
Dear colleague, please return just the value in pM, with no unit written.

Problem: Need Potency (pM), IL-17 and TNF-alpha-driven IL-6 production in NIH3T3 cells of IL17-h5C5.8 (antibody, V domains shown, IgG; constant regions not specified; also called h5C5.8 (VH.1-Vk.1a)) VH: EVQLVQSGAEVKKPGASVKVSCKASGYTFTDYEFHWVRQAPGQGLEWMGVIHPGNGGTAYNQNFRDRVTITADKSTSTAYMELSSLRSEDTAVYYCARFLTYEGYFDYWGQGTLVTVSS VL: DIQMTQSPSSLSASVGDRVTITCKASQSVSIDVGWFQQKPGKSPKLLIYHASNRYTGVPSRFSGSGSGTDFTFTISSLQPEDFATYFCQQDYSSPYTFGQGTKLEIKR , thanks.
Result: 13100

Problem: For the binder IL17-h5C5.3 (antibody, V domains shown, IgG; constant regions not specified) VH: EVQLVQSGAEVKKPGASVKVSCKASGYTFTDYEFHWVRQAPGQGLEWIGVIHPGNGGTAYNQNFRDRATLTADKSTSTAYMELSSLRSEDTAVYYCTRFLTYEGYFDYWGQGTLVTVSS VL: NIVMTQTPKFLLVSPGDRVTITCKASQSVSIDVGWFQQKPGQSPKLLIYHASNRYTGVPDRFTGSGYGTDFTFTVNTVQAEDLAVYFCQQDYSSPYTFGGGTKLELKR , what Potency (pM), IL-17 and TNF-alpha-driven IL-6 production in NIH3T3 cells is on record?
Result: 2520

Problem: What value of Potency (pM), IL-17 and TNF-alpha-driven IL-6 production in NIH3T3 cells has been reported for the following binder? m5C5.hIgG1 (antibody, V domains shown) VH: QVQLQQSGAELVRPGASVKLSCKALGYTFTDYEFHWVKQTPVHGLEWIGVIHPGNGGTAYNQNFRDKATLTADKSSSTAYMELSSLTSEDSGVYYCTRFLTYEGYFDYWGQGTALTVSS VL: NIVMTQTPKFLLVSPGDRVTITCKASQSVSIDVGWFQQKPGQSPKLLIYHASNRYTGVPDRFTGSGYGTDFTFTVNTVQAEDLAVYFCQQDYSSPYTFGGGTKLELKR
Result: 4910

Problem: Reported Potency (pM), IL-17 and TNF-alpha-driven IL-6 production in NIH3T3 cells, binder IL17-h5C5.9 (antibody, V domains shown, IgG; constant regions not specified; also called h5C5.9 (VH.1b-Vk.1a)) VH: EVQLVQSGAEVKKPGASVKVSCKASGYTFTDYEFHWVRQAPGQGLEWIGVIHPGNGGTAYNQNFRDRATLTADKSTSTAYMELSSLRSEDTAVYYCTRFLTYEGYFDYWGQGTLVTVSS VL: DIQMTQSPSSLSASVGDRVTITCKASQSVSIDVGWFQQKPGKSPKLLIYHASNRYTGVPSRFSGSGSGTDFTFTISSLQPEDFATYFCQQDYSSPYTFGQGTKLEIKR : ____
Result: 5680
